Quick reference for MBC among some molecules
- Tested on: Enterococcus faecalis
- protocol.notes: Bactericidal activity against vancomycin-resistant Enterococcus faecalis after 24 hrs
- Type: functional

Record excerpt, results attached:
Supply reported MBC belonging to this molecule: `Brc1ccc2[nH]cc(C(c3ccc4ccccc4c3)c3c[nH]c4ccc(Br)cc34)c2c1`
32 µg/mL

Supply reported MBC belonging to this molecule: `Oc1ccc(C(c2c[nH]c3ccc(Br)cc23)c2c[nH]c3ccc(Br)cc23)cc1`
2 µg/mL

Supply reported MBC belonging to this molecule: `Brc1ccc(C(c2c[nH]c3ccc(Br)cc23)c2c[nH]c3ccc(Br)cc23)cc1`
64 µg/mL

More entries:
Supply reported MBC belonging to this molecule: `O=C(O)c1cn(C2CC2)c2cc(N3CCNCC3)c(F)cc2c1=O`
64 µg/mL

Supply reported MBC belonging to this molecule: `Cn1cc(C(c2ccc(F)cc2)c2cn(C)c3ccc(Br)cc23)c2cc(Br)ccc21`
8 µg/mL

Supply reported MBC belonging to this molecule: `Fc1ccc(C(c2c[nH]c3ccc(Br)cc23)c2c[nH]c3ccc(Br)cc23)cc1`
16 µg/mL

Supply reported MBC belonging to this molecule: `COc1ccc2c(c1)OC(C)(C)CC2(c1c[nH]c2ccc(Br)cc12)c1c[nH]c2ccc(Br)cc12`
8 µg/mL

* * *

Quick reference for MBC among some compounds
- System: Enterococcus faecalis
- protocol.notes: Bactericidal activity against vancomycin-resistant Enterococcus faecalis after 24 hrs
- Assay type: functional
Field: numeric (µg/mL). Do not append units.

Record excerpt, results attached:
Supply reported MBC belonging to this compound: `COc1ccc(C(c2c[nH]c3ccc(Br)cc23)c2c[nH]c3ccc(Br)cc23)cc1`
32

Supply reported MBC belonging to this compound: `Oc1cccc(C(c2c[nH]c3ccc(Br)cc23)c2c[nH]c3ccc(Br)cc23)c1`
8

Supply reported MBC belonging to this compound: `N#Cc1ccc2[nH]cc(C(c3ccc(F)cc3)c3c[nH]c4ccc(C#N)cc34)c2c1`
8

Supply reported MBC belonging to this compound: `Clc1ccc(C(c2c[nH]c3ccc(Br)cc23)c2c[nH]c3ccc(Br)cc23)cc1`
8

More entries:
Supply reported MBC belonging to this compound: `Brc1ccc2[nH]cc(C(c3c[nH]c4ccc(Br)cc34)C3CCCCC3)c2c1`
32

Supply reported MBC belonging to this compound: `CC1(C)CC(c2c[nH]c3ccc(Br)cc23)(c2c[nH]c3ccc(Br)cc23)c2ccc(O)cc2O1`
4

* * *

Quick reference for IC50 among some molecules
- Tested on: HeLa
- protocol.notes: Cytotoxicity against human HeLa cells after 48 hrs by MTT assay
- Format: functional, cell-based
Field: numeric (µM). Do not append units.

Supply reported IC50 belonging to this molecule: `Fc1ccc(C(c2cn(Cc3ccc(Cl)cc3)c3ccc(Br)cc23)c2cn(Cc3ccc(Cl)cc3)c3ccc(Br)cc23)cc1`
18.5

Supply reported IC50 belonging to this molecule: `CCCCCCCCn1cc(C(c2ccc(F)cc2)c2cn(CCCCCCCC)c3ccc(Br)cc23)c2cc(Br)ccc21`
32.4

Then there is this molecule:
Supply reported IC50 belonging to this molecule: `Fc1ccc(C(c2cn(Cc3ccccc3)c3ccc(Br)cc23)c2cn(Cc3ccccc3)c3ccc(Br)cc23)cc1`
28.3

* * *

- System: Staphylococcus aureus
- protocol.notes: Bactericidal activity against Staphylococcus aureus ATCC 29213 after 24 hrs
- Assay type: functional
- condition.details: ATCC 29213, 24 h
Quick reference for MBC among some compounds
Field: numeric (µg/mL). Do not append units.

Record excerpt, results attached:
State, for Staphylococcus aureus, measured MBC of the compound listed here: `COc1ccc2c(c1)OC(C)(C)CC2(c1c[nH]c2ccc(Br)cc12)c1c[nH]c2ccc(Br)cc12`
4

State, for Staphylococcus aureus, measured MBC of the compound listed here: `Clc1ccc(C(c2c[nH]c3ccc(Br)cc23)c2c[nH]c3ccc(Br)cc23)cc1`
4

State, for Staphylococcus aureus, measured MBC of the compound listed here: `Cn1cc(C(c2ccc(F)cc2)c2cn(C)c3ccc(Br)cc23)c2cc(Br)ccc21`
4

More entries:
State, for Staphylococcus aureus, measured MBC of the compound listed here: `CCOc1ccc2c(c1)OC(C)(C)CC2(c1c[nH]c2ccc(Br)cc12)c1c[nH]c2ccc(Br)cc12`
8

State, for Staphylococcus aureus, measured MBC of the compound listed here: `Fc1ccc(C(c2c[nH]c3ccc(Br)cc23)c2c[nH]c3ccc(Br)cc23)cc1`
1

The reported numbers originate from ChEMBL document CHEMBL2429833.
